The values you see were collected from patent US20100136009A1.

# TARGET_OR_SYSTEM: T1, native Ovr110 protein on tumor cells (ZR-75-1, SKBR3, RL95.2, OVCAR3) (human, UniProt Q7Z7D3 25-282)
# T1 construct: whole, on cells; Endogenous protein of Ovr110-positive tumor cell lines; also called B7-H4; B7x
# T1 sequence (looked up): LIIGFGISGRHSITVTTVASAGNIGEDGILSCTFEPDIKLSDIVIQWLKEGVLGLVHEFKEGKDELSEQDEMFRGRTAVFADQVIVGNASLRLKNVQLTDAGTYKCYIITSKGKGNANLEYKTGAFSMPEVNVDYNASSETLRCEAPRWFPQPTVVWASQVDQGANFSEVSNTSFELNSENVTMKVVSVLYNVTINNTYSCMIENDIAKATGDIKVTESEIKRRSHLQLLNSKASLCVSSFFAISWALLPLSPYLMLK
# EXPERIMENTAL_DETAILS: flow cytometry; purified MAb; SKBR3 cells
MEASURE: % Cells Positive (%)
Respond numerically; units are % and should not be typed.

Record excerpt, results attached:
% Cells Positive in this record for Ovr110.Q19 (antibody, IgG1, V domains shown, Mouse hybridoma MAb; also called Q19.6; Ovr110.Q19.6) VH: DVLLQESGPGLVKASQSLSLTCSVTGYSITSGYFWNWIRQFPGNKLEWMGYISYDGGNSYNPSLKNRISITRDTSKNQFFLRMKSVTAEDTATYYCARKALWLRFDYWGQGTTLTVSS VL: EIVLTQSPAIMSVYLGEKVTMTCSASLSVSYMHWYQQKSSTSPKLWIYDTSKVASGVPGRFSGSGSGNSYSLTISSMEAEDVATYYCFQGSGYPFTFGSGTKLEIKR : 95.2

% Cells Positive in this record for Ovr110.Q27 (antibody, IgG1, V domains shown, Mouse hybridoma MAb; also called Q27.4; Q27.2) VH: QVQPQQSGAELARPGASVKLSCKASGYTFTTYWMQWVKQRPGQGLEWIGAIYPGDGDTRYTQKFKGKATLTADKSSSTAYMQLSSLASEDSAVYYCAINWGYAMDYWGQGTSVTVSS VL: DIVLTQSHKIMSTSVGDRVSITCKASQDVRTAVAWYQQKPGQSPKLLIKSASYRYTGVPDRFSGSGSGTDFTFTISSVQAEDLAVYYCQQHYSNPTFGGGTKLEIKR : 94.8

% Cells Positive in this record for Ovr110.Q12 (antibody, IgG1, V domains shown, Mouse hybridoma MAb; also called Q12.2; Ovr110.Q12.2) VH: QVQLQQPGAELVKPGATVKLSCKTSGYTFTSYWMHWVKQRPGQGLEWIGEIDPSDSYTNYNQKFKGKATLTVDTSSTTAYMQLSSLTSEDSAVYYCAREYGNNDAMDYWGQGTSVTVSS VL: QIVLTQSPAIMSASPGEKVTMTCSASSGISYMHWYQQKPGTTPKRWIYDASKLASGVPSRFSGSGSGTSYSLTISSMEAEDAATYYCHQRRSYPFTFGSGTKLEIKR : 95.3

Now take the following binder into account.
% Cells Positive in this record for Ovr110.Q23 (antibody, IgG1, V domains shown, Mouse hybridoma MAb; also called Q23.6) VH: QVQLQQSGAELMKPGASVKISCKATGYTFSSYWIEWVKQRPGHGLEWIGEILPGSGITKYNEKFKTKATFTADTSSNTAYMQLSSLTSEDSAVYYCARYYFGSVNFYFDCWGQGTTLTVSS VL: QAVVTQESALTTSPGETVTLTCRSSTGAVTTSNYANWVQEKPDHLFTGLIGGTDNRPPGVPARFSGSLIGDKAALTITGTQTEDEAIYFCALWYSNHWVFGGGTKLTVLG : 93.9
